Reference source: patent US20210380703A1

Target: ACVR2A on primary human myotubes (human, UniProt P27037 20-513)
Sequence (P27037 20-513): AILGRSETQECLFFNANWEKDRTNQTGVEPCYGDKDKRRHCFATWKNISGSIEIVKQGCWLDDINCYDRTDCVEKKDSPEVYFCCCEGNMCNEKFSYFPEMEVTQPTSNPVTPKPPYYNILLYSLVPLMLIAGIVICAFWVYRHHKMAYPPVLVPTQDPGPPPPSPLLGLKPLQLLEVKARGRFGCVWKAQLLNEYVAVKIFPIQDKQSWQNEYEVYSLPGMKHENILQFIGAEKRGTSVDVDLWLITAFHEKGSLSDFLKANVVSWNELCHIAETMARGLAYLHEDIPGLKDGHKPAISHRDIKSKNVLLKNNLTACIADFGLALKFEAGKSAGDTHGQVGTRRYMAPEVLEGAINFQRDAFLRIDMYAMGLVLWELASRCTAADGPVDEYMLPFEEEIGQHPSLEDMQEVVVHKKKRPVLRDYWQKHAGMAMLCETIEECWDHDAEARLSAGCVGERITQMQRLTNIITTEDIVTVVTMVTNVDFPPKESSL
Assay: cell-based or functional assay
Assign Phospho-SMAD3 Human Skeletal Muscle GDF8 to each entry below.
One number for each entry.

Sample answers from the record:
367_H06 (antibody, V domains shown) VH: EVQLLESGGGLVQPGGSLRLSCAASGFTFSSYGMNWVRQAPGKGLEWVSNINYNGGYTGYADSVKGRFTISRDNSKNTLYLQMNSLRAEDTAVYYCARSANWHDTHLDYWGQGTLVTVSS VL: DIQMTQSPSSLSASVGDRVTITCRASQSIITYLNWYQQKPGKAPKLLIYAATSRASGVPSRFSGSGSGTDFTLTISSLQPEDFATYYCQQSYDTPLTFGGGTKVEIK; 0.108
371_B07 (antibody, V domains shown) VH: EVQLLESGGGLVQPGGSLRLSCAASGFTFDSYSMNWVRQAPGKGLEWVAGINYNGGYTSYADSVKGRFTISRDNSKNTLYLQMNSLRAEDTAVYYCARSANWHDTALDYWGQGTLVTVSS VL: DIQMTQSPSSLSASVGDRVTITCRASQSILTYVNWYQQKPGKAPKLLIYAATSRASGVPSRFSGSGSGTDFTLTISSLQPEDFATYYCQQSYELPLTFGGGTKVEIK; 0.0402

Turning to the following binder.
Data point: 374_C03 (antibody, V domains shown) VH: EVQLLESGGGLVQPGGSLRLSCAASGFTFDSYSMNWVRQAPGKGLEWVSGINYNSGYTSYADSVKGRFTISRDNSKNTLYLQMNSLRAEDTAVYYCARSANWHDTALDYWGQGTLVTVSS VL: DIQMTQSPSSLSASVGDRVTITCRASQSILTYLNWYQQKPGKAPKLLIYAATSRASGVPSRFSGSGSGTDFTLTISSLQPEDFATYYCQQSYDSPLTFGGGTKVEIK ; Phospho-SMAD3 Human Skeletal Muscle GDF8 = 0.0094
